Listing of recorded FACs 10 ug/ml (percent gated) by entry.
Target of assay: T1, murine CD38 on transiently transfected Expi293 cells (Origene MC208001) (murine, UniProt P56528 1-304)
T1 construct: whole, on cells; also called Murine (FACs)
T1 sequence (looked up): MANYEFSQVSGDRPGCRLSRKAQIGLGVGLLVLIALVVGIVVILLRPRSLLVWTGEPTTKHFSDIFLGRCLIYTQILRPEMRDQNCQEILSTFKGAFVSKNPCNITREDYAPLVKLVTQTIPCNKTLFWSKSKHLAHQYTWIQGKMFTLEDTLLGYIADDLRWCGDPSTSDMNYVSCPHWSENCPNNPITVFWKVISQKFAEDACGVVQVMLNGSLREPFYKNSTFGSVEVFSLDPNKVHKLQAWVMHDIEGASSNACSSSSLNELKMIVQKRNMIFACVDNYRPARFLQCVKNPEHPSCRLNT
Assay details: flow cytometry, transfected Expi293 cells;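 note: antibody binding to Expi293 cells transiently expressing human or murine CD38, antibodies applied at 10 ug/ml for 60 min on ice, read by flow cytometry as percent gated cells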
Field format: number, assumed %, no unit text.

>>> test_value("40617p1.2.A1 (scFv, V domains shown, tested as scFv-Fc supernatant) VH: EVQLLESGGGLVQPGGSLRLSCAASGFTFSSYWMTWVRQAPGKGLEWVSAISSYGGQYTYYADSVKGRFTISRDNSKDTLYLHMDSLRAEDTAVYYCAKDWDDGMDVWGQGTTVTVSS VL: EIVMTQSPAVLSVSPGERATLSCRASQSVNIKLAWYQQKPGQAPRLLIYGASTRAAGIPDRFSGSGSGTDFTLTISSLQSDDFAVYYCQQYYDLPPYSFGGGTKVEIK")
67.9

Okay, next one:
Please give the measured FACs 10 ug/ml (percent gated) for this binder: 40769p1.1.A4 (scFv, V domains shown, tested as scFv-Fc supernatant) VH: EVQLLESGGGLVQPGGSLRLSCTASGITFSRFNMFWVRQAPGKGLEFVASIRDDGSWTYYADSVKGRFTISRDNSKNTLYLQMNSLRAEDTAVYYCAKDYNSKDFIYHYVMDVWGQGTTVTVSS VL: QSVLTQPPSASGTPGQRVTISCSGRNSNIGNNVVNWYQQLPGTAPKLLIYKDDQRPSGVPDRFSGSKSGTSASLAISGLQSEDEADYYCSTWDDSLNGWVFGGGTKLTVL
3.09
